Readings of Fold IC50 increase relative to wild-type for the listed binders
# Measurement Target: HIV-1 JR-CSF Env S393A (HIV-1 (isolate JR-CSF)) (UniProt P20871)
# Assay: cell-based or functional assay
Property Name: Fold IC50 increase relative to wild-type (fold)

Binder	Property Name	Units Of Measure	Observed Result
PGT-125 (antibody, V domains shown) VH: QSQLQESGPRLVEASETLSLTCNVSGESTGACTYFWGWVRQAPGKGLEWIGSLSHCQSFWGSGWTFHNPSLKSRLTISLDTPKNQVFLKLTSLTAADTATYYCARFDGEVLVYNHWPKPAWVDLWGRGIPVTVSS VL: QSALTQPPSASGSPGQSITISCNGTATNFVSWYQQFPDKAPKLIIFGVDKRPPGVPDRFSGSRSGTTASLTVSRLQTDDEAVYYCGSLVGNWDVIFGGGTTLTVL	Fold IC50 increase relative to wild-type	fold	0.5
PGT-123 (antibody, V domains shown) VH: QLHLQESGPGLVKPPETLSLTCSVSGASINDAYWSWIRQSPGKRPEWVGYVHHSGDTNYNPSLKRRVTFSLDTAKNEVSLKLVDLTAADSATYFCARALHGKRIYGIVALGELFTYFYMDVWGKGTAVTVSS VL: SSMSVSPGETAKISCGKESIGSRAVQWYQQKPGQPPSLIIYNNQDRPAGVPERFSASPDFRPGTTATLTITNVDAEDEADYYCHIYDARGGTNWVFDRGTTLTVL	Fold IC50 increase relative to wild-type	fold	0.6
